measured-on: FTase (Rattus norvegicus, UniProt Q02293+Q04631)
Construct: The two enzymes FTase and GGTase-I were purified starting from rat's brain
assay-summary: FTase enzyme test (scintillation proximity assay)
experimental-context: rat brain FTase, biotinylated lamin B peptide, [3H]farnesyl pyrophosphate, 37° C., one hour; read-out: IC50 with respect to FTase
reported-metric: IC50 (nM)
Give just the number in nM; leave the unit off.

Recorded result, CC(C)(C)OC(=O)Nc1ccc(-n2c(=O)c3ccccc3n(CC(Cc3ccccc3)Cn3ccnc3)c2=O)cc1 (stereo not shown) , IC50: 19

====

Test system: cells transfected with v-H-ras
assay-summary: Cell proliferation test (MTT) on RAT2 fibroblasts transfected with v-H-ras
Type: cell-based
experimental-context: Rattus norvegicus, 96 h, RAT2 transfectant, 10% serum, four days, read-out: IC50 of inhibition of growth of cells transfected by the oncogene v-H-ras
reported-metric: IC50 (nM)
Value expressed in nM; do not type the unit.

Notebook: CC(C)(C)OC(=O)Nc1ccc(-n2c(=O)c3ccccc3n(CC(Cc3ccccc3)Cn3ccnc3)c2=O)cc1 (stereo not shown) , IC50 read as 9
